Reported values of log10 KI (inactivation) for individual entries
Biological target: CalASADH (C. albicans ASADH, aspartate semialdehyde dehydrogenase) (Candida albicans, UniProt Q5ALM0)
Construct: gene HOM2; catalytic Cys-156; PDB 3hsk used as docking model of the same protein; ATCC 10231 is only the growth-test strain
Sequence (Q5ALM0 1-365): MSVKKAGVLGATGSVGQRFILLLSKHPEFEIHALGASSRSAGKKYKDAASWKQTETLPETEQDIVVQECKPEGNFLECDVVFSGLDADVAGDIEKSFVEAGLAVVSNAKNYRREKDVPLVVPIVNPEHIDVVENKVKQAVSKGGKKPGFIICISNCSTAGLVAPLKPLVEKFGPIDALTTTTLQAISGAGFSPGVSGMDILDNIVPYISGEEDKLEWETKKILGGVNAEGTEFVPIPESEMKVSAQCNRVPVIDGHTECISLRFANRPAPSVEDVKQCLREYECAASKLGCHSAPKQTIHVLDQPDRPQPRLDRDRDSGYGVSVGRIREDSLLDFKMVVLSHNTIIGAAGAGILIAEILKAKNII
Assay: time-dependent inactivation, NADPH formation at […] nm, kobs = kinact[I]/(Ki+[I])
Type: biochemical
Settings: covalent; irreversible inactivation; residual activity read at pH 8.6 with 0.3 mM L-aspartate-beta-semialdehyde, 20 mM phosphate, 1.5 mM NADP
assay_endpoint: log10 KI (inactivation) (log10 of the value in µM)

molecule: CC(=O)Nc1ccc(/C=C/S(C)(=O)=O)cc1 [compound 2, vinyl sulfone, R1 methyl, R2 acetanilide]
measured_number: 2.31
//
molecule: CS(=O)(=O)CC(=O)c1cccnc1 [compound 21]
measured_number: 1.41
//
molecule: O=S(=O)(/C=C/c1ccncc1)N1CCOCC1 [compound 11]
measured_number: 0.07
//
molecule: CS(=O)(=O)/C=C/c1ccc(O)cc1 [compound 1, vinyl sulfone, R1 methyl, R2 1,4-phenol]
measured_number: 2.73
//
molecule: CC(C)S(=O)(=O)/C=C/C[C@H](N)C(=O)O [compound 17, vinyl sulfone, R1 isopropyl, R2 alanyl]
measured_number: -0.12
//
molecule: N[C@@H](C/C=C/S(=O)(=O)Cc1ccccc1)C(=O)O [compound 16, vinyl sulfone, R1 benzyl, R2 alanyl]
measured_number: 0.26
//
molecule: CS(=O)(=O)/C=C/C[C@H](N)C(=O)O [compound 14, vinyl sulfone, R1 methyl, R2 alanyl]
measured_number: 0.88
//
molecule: CS(=O)(=O)/C=C/c1ccnc2ccccc12 [compound 6, vinyl sulfone, R1 methyl, R2 4-quinoline]
measured_number: 0.64
